- Test system: P388
- assayNotes: Inhibitory activity against Murine P388 cells
- Assay type: functional, cell-based
- measurementParameters: Mus musculus
measureName: pIC50
Worth noting: pIC50 values are minus log10 of concentrations stated in mol/L.

Record summary for O=C1/C(=C/c2ccccc2Br)CCc2ccccc21 : reported pIC50 = 4.71

Record summary for COc1cccc(/C=C/C(=O)c2ccccc2)c1 : reported pIC50 = 5.01

Record summary for O=C1/C(=C/c2ccc(Cl)c(Cl)c2)Cc2ccccc21 : reported pIC50 = 4.60

Record summary for O=C1/C(=C/c2ccccc2Cl)CCCc2ccccc21 : reported pIC50 = 4.90

Record summary for O=C1/C(=C/c2ccccc2Cl)Cc2ccccc21 : reported pIC50 = 4.58

Record summary for COc1ccccc1/C=C/C(=O)c1ccccc1 : reported pIC50 = 4.80

Record summary for O=C(/C=C/c1cccc([N+](=O)[O-])c1)c1ccccc1 : reported pIC50 = 4.82

Record summary for COc1cccc(/C=C2\Cc3ccccc3C2=O)c1OC : reported pIC50 = 4.54

Record summary for Cc1ccccc1/C=C1\CCc2ccccc2C1=O : reported pIC50 = 4.75

Record summary for COc1ccc(/C=C2\Cc3ccccc3C2=O)c(OC)c1 : reported pIC50 = 4.89

Record summary for O=C1/C(=C/c2ccc(Cl)c(Cl)c2)CCCc2ccccc21 : reported pIC50 = 4.91

----------
Hi there, I'd appreciate the recorded pIC50 for every entry that follows.
- System: P388
- assayNotes: Inhibitory activity against Murine P388 cells
- Format: functional, cell-based
- measurementParameters: Mus musculus
pIC50: −log10 of the molar value.

Record summary for O=C1/C(=C/c2ccccc2Br)Cc2ccccc21 : reported pIC50 = < 4.30

Record summary for COc1cc(/C=C2\Cc3ccccc3C2=O)cc(OC)c1OC : reported pIC50 = < 4.30

Record summary for O=C1/C(=C/c2ccc(Cl)cc2Cl)Cc2ccccc21 : reported pIC50 = < 4.30
